Tested on: Candida albicans
Assay: Antimicrobial activity against Candida albicans ATCC 14053 after 17 to 20 hrs by serial dilution method
Type: functional
Where a SMILES comes first, the peptide text is derived from it. The star is where a group is joined. Stearoyl = CCCCCCCCCCCCCCCCCC(=O)*; Myristoyl = CCCCCCCCCCCCCC(=O)*
MIC values by entry
measuredEndpoint: MIC

compound	obsValue
CCCCCCCCCCCCCCCCCC(=O)N[C@@H](CCCCN)C(=O)N[C@@H](Cc1c[nH]c2ccccc12)C(=O)N[C@@H](CCCCN)C(N)=O (Stearoyl-Lys-Trp-Lys-NH2)	> 62.5 µg/mL
CCCCCCCCCCCCCC(=O)N[C@@H](CCCCN)C(=O)N[C@H](C(=O)N[C@@H](CCCCN)C(=O)N[C@@H](CCCNC(=N)N)C(=O)N[C@@H](Cc1c[nH]c2ccccc12)C(=O)N[C@@H](CCCNC(=N)N)C(N)=O)[C@@H](C)CC (Myristoyl-KIKRWR-NH2)	> 62.5 µg/mL
CCCCCCCCCCCCCC(=O)N[C@@H](CCCCN)C(=O)N[C@H](C(=O)N[C@@H](Cc1c[nH]c2ccccc12)C(=O)N[C@@H](Cc1c[nH]c2ccccc12)C(=O)N[C@@H](CCCCN)C(N)=O)[C@@H](C)CC (Myristoyl-KIWWK-NH2)	31.2 µg/mL
CCCCCCCCCCCCCCCCCC(=O)N[C@@H](CCCCN)C(=O)N[C@H](C(=O)N[C@@H](CCCNC(=N)N)C(=O)N[C@@H](Cc1c[nH]c2ccccc12)C(=O)N[C@@H](Cc1c[nH]c2ccccc12)C(=O)N[C@@H](CCCNC(=N)N)C(N)=O)[C@@H](C)CC (Stearoyl-KIRWWR-NH2)	> 62.5 µg/mL

====

Test: Cytotoxicity in human erythrocytes assessed as hemolysis at 250 ug/ml after 1 hr relative to control
Assay type: cell-based, Erythrocyte
Details: read-out: Activity
Where a SMILES comes first, the peptide text is derived from it. The star is where a group is joined. Myristoyl = CCCCCCCCCCCCCC(=O)*; Decanoyl = CCCCCCCCCC(=O)*
Parameter hemolysis at 1 h, 250 ug/ml: see the listing below.

molecule	hemolysis at 1 h, 250 ug/ml
CCCCCCCCCC(=O)N[C@@H](CCCNC(=N)N)C(=O)N[C@H](C(=O)N[C@@H](CCCCN)C(=O)N[C@@H](Cc1c[nH]c2ccccc12)C(=O)N[C@@H](CCCCN)C(N)=O)[C@@H](C)CC (Decanoyl-RIKWK-NH2)	< 10%
CCCCCCCCCCCCCC(=O)N[C@@H](CCCCN)C(=O)N[C@@H](Cc1c[nH]c2ccccc12)C(=O)N[C@@H](CCCCN)C(N)=O (Myristoyl-Lys-Trp-Lys-NH2)	19%
CCCCCCCCCCCCCC(=O)N[C@@H](CCCNC(=N)N)C(=O)N[C@H](C(=O)N[C@@H](CCCCN)C(=O)N[C@@H](Cc1c[nH]c2ccccc12)C(=O)N[C@@H](CCCCN)C(N)=O)[C@@H](C)CC (Myristoyl-RIKWK-NH2)	20%
CCCCCCCCCC(=O)N[C@@H](CCCCN)C(=O)N[C@@H](Cc1c[nH]c2ccccc12)C(=O)N[C@@H](CCCCN)C(N)=O (Decanoyl-Lys-Trp-Lys-NH2)	< 10%

====

Test: Cytotoxicity in human erythrocytes assessed as hemolysis at 125 ug/ml after 1 hr relative to control
Format: cell-based, Erythrocyte
Conditions: read-out: Activity
Where a SMILES comes first, the peptide text is derived from it. The star is where a group is joined. Myristoyl = CCCCCCCCCCCCCC(=O)*; Decanoyl = CCCCCCCCCC(=O)*

molecule	sign	hemolysis at 1 h, 125 ug/ml [%]
CCCCCCCCCCCCCC(=O)N[C@@H](CCCCN)C(=O)N[C@@H](Cc1c[nH]c2ccccc12)C(=O)N[C@@H](CCCCN)C(N)=O (Myristoyl-Lys-Trp-Lys-NH2)	=	11
CCCCCCCCCCCCCC(=O)N[C@@H](CCCCN)C(=O)N[C@@H](Cc1c[nH]c2ccccc12)C(=O)N[C@@H](CCCCN)C(=O)N[C@@H](Cc1c[nH]c2ccccc12)C(N)=O (Myristoyl-KWKW-NH2)	=	17
CCCCCCCCCCCCCC(=O)N[C@@H](CCCCN)C(=O)N[C@@H](Cc1c[nH]c2ccccc12)C(=O)N[C@@H](Cc1c[nH]c2ccccc12)C(=O)N[C@@H](CCCCN)C(N)=O (Myristoyl-KWWK-NH2)	=	56
CCCCCCCCCC(=O)N[C@@H](CCCNC(=N)N)C(=O)N[C@@H](CCCCN)C(=O)N[C@@H](Cc1c[nH]c2ccccc12)C(=O)N[C@@H](Cc1c[nH]c2ccccc12)C(=O)N[C@@H](CCCCN)C(N)=O (Decanoyl-RKWWK-NH2)	<	10
